Each entry below carries its reported MIC.
- Test system: Escherichia coli
- assay.summary: Antimicrobial activity against Escherichia coli assessed as microbial growth inhibition by CLSI-protocol based broth microdilution assay
- Type: functional
Report the value in µg/mL with no unit label.

- compound: "CC1OC(=O)/C=C/[C@@H](O)CC[C@H](C)OC(=O)CCC1=O (stereo not given in full)"
  MIC (µg/mL): 125
- compound: "CN[C@@H]1[C@H](O[C@H]2[C@H](O[C@H]3[C@H](O)[C@@H](O)[C@H](N=C(N)N)[C@@H](O)[C@@H]3N=C(N)N)O[C@@H](C)[C@]2(O)C=O)O[C@@H](CO)[C@H](O)[C@H]1O"
  MIC (µg/mL): 0.25
- compound: "CC[C@H]1OC(=O)[C@H](C)[C@@H](O[C@H]2C[C@@](C)(OC)[C@@H](O)[C@H](C)O2)[C@H](C)[C@@H](O[C@@H]2O[C@H](C)C[C@H](N(C)C)[C@H]2O)[C@](C)(O)C[C@@H](C)C(=O)[C@H](C)[C@@H](O)[C@]1(C)O"
  MIC (µg/mL): 16
- compound: "CO[C@H]1/C=C/O[C@@]2(C)Oc3c(C)c(O)c4c(O)c(c(/C=N/N5CCN(C)CC5)c(O)c4c3C2=O)NC(=O)/C(C)=C\\C=C\\[C@H](C)[C@H](O)[C@@H](C)[C@@H](O)[C@@H](C)[C@H](OC(C)=O)[C@@H]1C"
  MIC (µg/mL): 4

# input compound: CC1(C)S[C@@H]2[C@H](NC(=O)Cc3ccccc3)C(=O)N2[C@H]1C(=O)O ; wanted: its MIC
16

* * *

- System: Escherichia coli
- assay.summary: Antimicrobial activity against Escherichia coli assessed as microbial growth inhibition by CLSI-protocol based broth microdilution assay
- Type: functional
List of MIC values.
Express your answer in µg/mL, writing the number without its unit.

- compound: "C[C@@H]1OC(=O)/C=C/[C@@H](O)CC[C@H](C)OC(=O)CC[C@@H]1O"
  assayed.system: "Escherichia coli"
  readout.label: "MIC"
  value.unit: "µg/mL"
  test.value: 125

Please look at the following compound next.
If you can, please state the reported MIC value of CC[C@H]1OC(=O)[C@H](C)[C@@H](O[C@H]2C[C@@](C)(OC)[C@@H](O)[C@H](C)O2)[C@H](C)[C@@H](O[C@@H]2O[C@H](C)C[C@H](N(C)C)[C@H]2O)[C@](C)(OC)C[C@@H](C)C(=O)[C@H](C)[C@@H](O)[C@]1(C)O [CLARITHROMYCIN] .
16
